All values here come from patent US9981963B2.

# target_or_test_system: Recombinant Human NF-kappaB-inducing Kinase (NIK/MAP3K14) (Homo sapiens (Human))
# Sequence (Q99558 whole entry): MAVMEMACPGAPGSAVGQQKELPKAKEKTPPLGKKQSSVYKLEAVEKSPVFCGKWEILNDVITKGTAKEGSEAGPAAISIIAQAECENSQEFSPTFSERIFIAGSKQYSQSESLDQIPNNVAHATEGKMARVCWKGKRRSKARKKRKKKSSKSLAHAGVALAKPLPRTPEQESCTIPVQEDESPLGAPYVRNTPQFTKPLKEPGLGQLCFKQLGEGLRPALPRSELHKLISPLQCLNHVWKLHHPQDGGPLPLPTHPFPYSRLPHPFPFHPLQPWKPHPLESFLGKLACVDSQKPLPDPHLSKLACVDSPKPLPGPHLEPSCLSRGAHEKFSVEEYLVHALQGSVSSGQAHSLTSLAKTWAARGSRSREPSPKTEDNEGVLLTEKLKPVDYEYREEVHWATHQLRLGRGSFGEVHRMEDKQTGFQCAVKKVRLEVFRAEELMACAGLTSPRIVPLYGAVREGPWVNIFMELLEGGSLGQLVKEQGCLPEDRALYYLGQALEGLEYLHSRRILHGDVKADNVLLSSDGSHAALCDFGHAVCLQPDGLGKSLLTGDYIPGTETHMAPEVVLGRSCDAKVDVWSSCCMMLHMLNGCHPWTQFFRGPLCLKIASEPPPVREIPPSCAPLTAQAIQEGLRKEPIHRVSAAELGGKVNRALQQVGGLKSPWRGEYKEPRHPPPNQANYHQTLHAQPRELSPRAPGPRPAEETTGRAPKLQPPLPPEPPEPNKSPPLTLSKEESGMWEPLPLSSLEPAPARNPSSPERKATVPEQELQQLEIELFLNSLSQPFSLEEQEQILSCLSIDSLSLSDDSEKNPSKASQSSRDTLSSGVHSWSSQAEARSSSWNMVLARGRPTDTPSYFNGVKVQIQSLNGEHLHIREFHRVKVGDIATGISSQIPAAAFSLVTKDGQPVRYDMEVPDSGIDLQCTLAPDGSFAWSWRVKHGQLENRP
# assay: Biological Assay A2: inhibition of auto-phosphorylation of recombinant human NIK/MAP3K14 (AlphaScreen)
# Assay type: biochemical
# test_context: 25 microM ATP, 0.2 nM GST-tagged NIK/MAP3K14, 1 h at 25° C., averaged values, read-out: Alpha-Screen IC50
Kindly state pIC50 for each of the entries shown.
Would you please state pIC50, meaning minus log10 of the concentration in mol/L, as a bare number?

GET /value?item= CC(C)(O)C#Cc1cc2c(-c3cn[nH]c3)cn(CC(C)(C)O)c2cn1 &field=pIC50 returns 6.97

compound CC(C)(O)C#Cc1cc2c(-c3cn[nH]c3)cn(S(C)(=O)=O)c2cn1 , pIC50 observed: 7.26

Memo: [2H]c1n[nH]c([2H])c1-c1cn(C2CCN(C3CC3)CC2)c2cnc(C#CC(O)(C([2H])([2H])[2H])C([2H])([2H])[2H])cc12 , reported pIC50: 7.36

// field: pIC50; key: CC(C)(O)C#Cc1cc2c(-c3cn[nH]c3)cn(CC(F)(F)F)c2cn1 ; value = 7.37

Consider CCn1cc(-c2c[nH]nc2NC)c2cc(C#CC(C)(C)O)ncc21 . Its measured pIC50 is 6.56

So for CC(C)(O)C#Cc1cc2c(-c3cn[nH]c3)cn(CCO)c2cn1 , the logged pIC50 turned out to be 7.66

Briefly, pIC50 measured for CCn1cc(-c2cn[nH]c2)c2cc(C#CC(C)O)ncc21 (stereo not drawn) : 7.89

// field: pIC50; key: CCn1c(C#N)c(-c2cn[nH]c2)c2cc(C#CC(C)(C)O)ncc21 ; value = 7.33

Memo: CC(C)(O)C#Cc1cc2c(-c3c[nH]nc3C#N)cn(CC(C)(C)O)c2cn1 , reported pIC50: 7.36

Briefly, pIC50 measured for CC(C)CS(=O)(=O)n1cc(-c2cn[nH]c2)c2cc(C#CC(C)(C)O)ncc21 : 6.85

CCn1cc(-c2c[nH]nc2C#N)c2cc(C#CC(C)(C)O)ncc21 yielded pIC50 of 7.46

// sample CC(C)(O)C#Cc1cc2c(-c3cn[nH]c3)cn(CC3COC3)c2cn1 , its pIC50 was 7.16

Reported pIC50 for CCn1cc(-c2cn[nH]c2)c2cc(C#CC(C)(O)c3cc(C)on3)ncc21 (stereo not drawn) was 7.85

Reported pIC50 for CC(C)(O)C#Cc1cc2c(-c3cn[nH]c3)cn(C3CCN(CC(F)(F)F)CC3)c2cn1 was 7.64

# pIC50 (compound: CCC(CC)n1cc(-c2cn[nH]c2)c2cc(C#CC(C)(C)O)ncc21 ) is 7.19

compound CN1CCC(n2cc(-c3cn[nH]c3)c3cc(C#CC(C)(C)O)ncc32)CC1 , pIC50 observed: 7.01

The reported value for OCCn1cc(-c2cn[nH]c2)c2cc(C#CC3(O)CCCC3)ncc21 in terms of pIC50 is 7.77

The recorded pIC50 for entry CC(C)(O)C#Cc1cc2c(-c3cn[nH]c3)cn(C3CCC(CO)CC3)c2cn1 (stereo not drawn) equals 8.40
